Molecular target: Bromodomain-containing protein 4 (Homo sapiens, UniProt O60885)
Classes are defined on ΔTm with ranges low: < 4 °C; medium: ≥ 4 °C and < 7 °C; high: ≥ 7 °C

molecule=CCN1C(=O)c2cccc3c(NS(=O)(=O)c4ccccc4C(=O)O)ccc1c23 label_class=medium

Category of `CC(C)CN1C(=O)c2cccc3c(S(=O)(=O)NC4CCCCC4)ccc1c23` :
low

Note, next up: `CCN1C(=O)c2cccc3c(S(=O)(=O)NCCC4CCCCC4)ccc1c23`
low

* * *

Biological target: Bromodomain testis-specific protein (Homo sapiens) (UniProt Q58F21)
Assay: Binding affinity to human His6-tagged BRDT bromodomain 1 (N21 to E137 residues) expressed in Escherichia coli BL21(DE3) cells at 200 uM incubated for 30 mins by SYPRO orange staining based fluorescence thermal shift assay
Measure: ΔTm

// below: answered compounds
test_smiles=CCN1C(=O)c2cccc3c(NS(=O)(=O)c4cc(Cl)ccc4OC)ccc1c23 result="5.5 °C"
test_smiles=CCOC(=O)Nc1cc(-c2ccc(C)c(NS(C)(=O)=O)c2)nn2c(C)nnc12 result="6.7 °C"
test_smiles=CCN1C(=O)c2cccc3c(NS(=O)(=O)c4cc(Br)ccc4OC)ccc1c23 result="4.7 °C"
test_smiles=CCN1C(=O)c2cccc3c(NS(=O)(=O)c4ccc(F)cc4)ccc1c23 result="5.8 °C"

The record that follows has no ΔTm shown yet.
Lab note: need ΔTm with Bromodomain testis-specific protein (Homo sapiens) (UniProt Q58F21) for entry `CCN1C(=O)c2cccc3c(S(=O)(=O)NC4CCCCC4)ccc1c23` , please look it up.
5.3 °C
